Reference source for all entries: ChEMBL document CHEMBL4190162

Exercise: state measured CC50 for each of the molecules provided.
Experiment: Cytotoxicity against human HepG2 cells after 24 to 48 hrs in presence of glucose by trypan blue dye-based hemocytometric method
Format: cell-based

molecule | CC50
COc1ccc2nc(C)cc(OCC(=O)Nc3ccc(OC)c(OC)c3)c2c1 | > 131 µM

I'm hoping you can list CC50 for every molecule here, please.
1. COc1ccccc1NC(=O)COc1cc(C)nc2ccc(C(F)(F)F)cc12
2. COc1ccc2nc(C)cc(OCC(=O)Nc3ccc(C)cc3)c2c1

output:
1: > 128 µM; 2: > 149 µM

Record CC50 for all entries; do not skip any.
1. COc1ccc2nc(C)cc(OCC(=O)Nc3ccc(Br)cc3)c2c1
2. COc1ccc2nc(C)cc(OCC(=O)Nc3ccccc3)c2c1

output:
1: > 125 µM; 2: > 155 µM

Provide CC50 for all items below, preserving their order.
1. COc1ccc(NC(=O)COc2cc(C)nc3ccc(OC)cc23)cc1
2. CCCCCC[C@H]1C(=O)O[C@H](C)[C@H](NC(=O)c2cccc(NC=O)c2O)C(=O)O[C@@H](C)[C@@H]1OC(=O)CC(C)C [ANTIMYCIN A]

output:
> 142 µM
> 50 µM

input: Looking for the measured CC50 of CCCCCNC(=O)COc1cc(C)nc2ccc(OC)cc12 , can you help?
output: > 158 µM

###

Tested on: Mycobacterium tuberculosis
Assay: Antimycobacterial activity against Mycobacterium tuberculosis H37Rv measured after 2 weeks
Type: functional
Settings: 336 h
metric.name: MIC

structure.smiles.string | result
COc1ccccc1NC(=O)COc1cc(C)nc2ccc(Cl)cc12 | > 140 µM
COc1ccc2nc(C)cc(OCC(=O)Nc3ccccc3)c2c1 | > 155 µM

For every record below, what is its MIC?
1. COc1ccc2nc(C)cc(OCC(=O)Nc3ccc(Cl)cc3)c2c1
2. COc1ccccc1NC(=O)COc1cc(C)nc2ccccc12
3. COc1ccc2nc(C)cc(OCC(=O)Nc3cccc(Br)c3)c2c1
4. COc1ccc2nc(C)cc(OCC(=O)Nc3ccccc3OC)c2c1

output:
> 140 µM
> 155 µM
> 125 µM
53.9 µM

Would you be so kind as to report MIC for each listed record?
1. COc1ccccc1NC(=O)COc1cc(C)nc2ccc(C)cc12
2. COc1ccc(NC(=O)COc2cc(C)nc3ccc(OC)cc23)c(OC)c1
3. COc1ccc2nc(C)cc(OCC(=O)Nc3ccccc3Cl)c2c1
4. Nc1ccc(C(=O)O)c(O)c1
5. COc1ccccc1NC(=O)COc1cc(C)nc2ccc(Br)cc12
6. COc1cc(NC(=O)COc2cc(C)nc3ccc(OC)cc23)cc(OC)c1
7. C#CCNC(=O)COc1cc(C)nc2ccc(OC)cc12

output:
["> 74 µM", "32.7 µM", "53.2 µM", "0.6 µM", "> 125 µM", "> 131 µM", "> 176 µM"]

Here are 3 compounds. What values of MIC were reported for them?
1. COc1ccccc1NC(=O)COc1cc(C)nc2ccc(C(F)(F)F)cc12
2. CC(=O)NC[C@H]1CN(c2ccc(N3CCOCC3)c(F)c2)C(=O)O1
3. COc1ccc2nc(C)cc(OCC(=O)Nc3ccc4c(c3)OCO4)c2c1

output:
["> 128 µM", "2.3 µM", "> 136 µM"]

###

System: Mycobacterium tuberculosis H37Rv
Experiment: Inhibition of Mycobacterium tuberculosis H37Rv cytochrome bc1 oxidase assessed as reduction in ATP level measured up to 24 hrs under anaerobic condition
Active and inactive are the calls of the source. No cut-off for these calls is given here.
Answer with one of the outcomes given here: active, inactive

Some entries whose results are on file:
structure.smiles.string | class.assignment
COc1ccc(NC(=O)COc2cc(C)nc3ccc(OC)cc23)c(OC)c1 | active
CCCCCNC(=O)COc1cc(C)nc2ccc(OC)cc12 | active
COc1ccc2nc(C)cc(OCC(=O)Nc3ccc(C)cc3)c2c1 | active
COc1cc(NC(=O)COc2cc(C)nc3ccc(OC)cc23)cc(OC)c1 | active
COc1ccc(NC(=O)COc2cc(C)nc3ccc(OC)cc23)cc1 | active
COc1ccccc1NC(=O)COc1cc(C)nc2ccccc12 | active
c1ccc(Cn2cnc3c(-c4ccco4)nccc32)cc1 | active
CC(=O)NC[C@H]1CN(c2ccc(N3CCOCC3)c(F)c2)C(=O)O1 | inactive

input: Would you mind telling me which call this test gave COCCNC(=O)COc1cc(C)nc2ccc(OC)cc12 ?
output: active

input: // param item: COc1ccc2nc(C)cc(OCC(=O)Nc3ccccc3)c2c1 ; yields the recorded call
output: active

input: Hey, what did the test say about COc1ccc2nc(C)cc(OCC(=O)NCc3ccc4c(c3)OCO4)c2c1 ?
output: active

###

Test: Cytotoxicity against human HepG2 cells after 24 to 48 hrs in presence of galactose by trypan blue dye-based hemocytometric method
Format: cell-based
For each of the compounds below, state its CC50.

Consider the reported CC50 for these compounds:
structure.smiles.string | CC50
COc1ccc2nc(C)cc(OCC(=O)Nc3ccccc3)c2c1 | 118 µM
COc1ccccc1NC(=O)COc1cc(C)nc2ccc(C(F)(F)F)cc12 | > 128 µM

Would you mind giving CC50 for every compound in the list below?
1. COc1ccccc1NC(=O)COc1cc(C)nc2ccc(Cl)cc12
2. COc1ccc2nc(C)cc(OCC(=O)NCCc3ccccc3)c2c1

output:
1: 99.2 µM; 2: 83.9 µM

For every item below, please supply its CC50.
1. COc1ccc2nc(C)cc(OCC(=O)NCCc3ccc(OC)c(OC)c3)c2c1
2. COc1ccc2nc(C)cc(OCC(=O)Nc3ccc(Br)cc3)c2c1

output:
> 122 µM
> 125 µM

###

Exercise: for every item that follows, state its recorded MIC.
System: Mycobacterium tuberculosis
Assay: Antimycobacterial activity against Mycobacterium tuberculosis H37Rv measured after 2 weeks
Assay type: functional
Settings: 336 h

Use the examples below as a reference point.
structure.smiles.string | result
COCCNC(=O)COc1cc(C)nc2ccc(OC)cc12 | > 164 µM
COc1cccc(NC(=O)COc2cc(C)nc3ccc(OC)cc23)c1 | > 142 µM
COc1ccc2nc(C)cc(OCC(=O)Nc3ccc(Br)cc3)c2c1 | > 125 µM
COc1ccc(NC(=O)COc2cc(C)nc3ccc(OC)cc23)cc1 | > 142 µM
COc1ccc2nc(C)cc(OCC(=O)NCc3ccccc3)c2c1 | > 148 µM
COc1ccc2nc(C)cc(OCC(=O)Nc3ccc(OC)c(OC)c3)c2c1 | > 131 µM

Attention now shifts to the item below.
input: Fill in: MIC of COc1ccc2nc(C)cc(OCC(=O)Nc3ccc(-c4ccccc4)cc3)c2c1 is ___
output: > 125 µM
